tested on: SF-268; assay: NCI tumour cell line growth inhibition, 48 h
Calls of active or inactive are those of the source. Cut-off read from the data, not from the text of the source: active = GI50 up to about 1.1 µM and inactive = higher.
GI50 values for the compounds below.

Recorded results for 3 compounds are shown here.
# compound, GI50
rows = [
    ("O=C1c2ccccc2-c2ccc(N(Cc3ccc(Br)cc3)Cc3ccc(Br)cc3)cc21", "> 100 µM (inactive)"),
    ("O=C(O)c1ccccc1/C=N\\N(CCO)C1=NCCN1", "> 100 µM (inactive)"),
    ("CC(C)(C)C1=C(Br)C(F)(C(C)(C)C)OP1(=O)c1ccccc1 (stereo unspecified)", "19.6 µM (inactive)"),
]

Entry CC1C=CC(C(N)C(=O)O)O1 (stereo unspecified) ; GI50 = > 100 µM (inactive)

compound COC(=O)Nc1nc2cc(NC(=O)c3cccs3)ccc2[nH]1 , GI50 observed: 75.3 µM (inactive)

Kindly note the recorded GI50 for O=C1c2c(O)cccc2C(C2OC(CO)C(O)C(O)C2O)c2cc(CO)cc(O)c21 (stereo unspecified) , which is > 100 µM (inactive)

In plain terms, CC(CSC(=N)N)C(N)=O (stereo unspecified) has a documented GI50 of > 100 µM (inactive)

For reference, reported GI50 for COc1cc2c(cc1OC)C1(c3ccc(Cl)cc3)ON=C(c3ccccc3)N1CS2 (stereo unspecified) stands at > 100 µM (inactive)

For record CN1C(=O)c2ccccc2NC(=O)C12O[C@@H]2c1cccc(O)c1 (stereo partly specified) the listed GI50 is > 100 µM (inactive)

Looking up Brc1ccc2[nH]cc(-c3nc(-c4c[nH]c5ccccc45)cs3)c2c1 , I found its GI50 recorded as 3 µM (inactive)

Looking up NC(=S)SC1=NC(=O)C2(NN1)c1ccccc1-c1ccccc12 , I see its GI50 listed as > 10 µM (inactive)

Data provenance is ChEMBL document CHEMBL1201862.
